# credit: patent US5741811A

List of GI50 tested on NCI-H23 lung cancer cells.
Enter your answer as a number in µM; do not include the unit.

These solved cases illustrate the format of a correct answer.
CC(=O)OCc1ccc(-c2ccc(-c3cccs3)s2)s1: 19.5
OCc1cc(-c2ccc(-c3cccs3)s2)sc1CO: 38.9
OCc1ccc(-c2ccc(-c3ccsc3)s2)s1 [drawing 37]: 24
OCc1ccc(-c2ccc(-c3cccs3)s2)s1 [drawing 30]: 70.8

Moving on to the next compound.
Look up GI50 for this compound: O=Cc1ccc(-c2ccc(-c3cccs3)s2)s1 [drawing 32]
55

---

- Test system: 786-0 renal cancer cells
Please assign NOT MET whenever GI50 is at or above 40 µM, and MET whenever it is below.

As a guide, the following entries are already answered.
O=Cc1ccc(-c2ccc(-c3cccs3)s2)s1 [drawing 32]: NOT MET
OCc1cc(-c2ccc(-c3cccs3)s2)sc1CO: NOT MET
OCc1ccc(-c2cccs2)s1: MET
CC(=O)OCc1ccc(-c2ccc(-c3cccs3)s2)s1: MET

Could you now look at the following molecule, please?
Field: below-cutoff. Rule: recorded GI50 strictly less than 40 µM. Subject: OCc1ccc(-c2ccc(-c3ccsc3)s2)s1 [drawing 37]
NOT MET

---

List of GI50 tested on SF-268 CNS cancer cells.
Enter your answer as a number in µM; do not include the unit.

For the record CC(=O)OCc1ccc(-c2ccc(-c3cccs3)s2)s1 , what value of GI50 is listed for SF-268 CNS cancer cells?
24.5

For the record OCc1ccc(-c2ccc(-c3ccsc3)s2)s1 [drawing 37] , what value of GI50 is listed for SF-268 CNS cancer cells?
53.7

For the record O=Cc1ccc(-c2ccc(-c3cccs3)s2)s1 [drawing 32] , what value of GI50 is listed for SF-268 CNS cancer cells?
87.1

---

List of GI50 tested on SK-MEL-28 melanoma cells.
Enter your answer as a number in µM; do not include the unit.

OCc1ccc(-c2ccc(-c3ccsc3)s2)s1 [drawing 37]: 36.3
OCc1cc(-c2ccc(-c3cccs3)s2)sc1CO: 39.8

Moving on to the next compound.
Look up GI50 for this compound: O=Cc1ccc(-c2ccc(-c3cccs3)s2)s1 [drawing 32]
89.1
